Documented EC50 across a set of compounds
target: human mGluR5A (Homo sapiens); assay: mGluR5 FLIPR Assay; settings: positive modulator activity; HEK293 (ZF) cells with human mGluR5A and rat GLAST; Ca++ response to ~EC10 glutamate
assayEndpoint: EC50

>>> reportedresult("O=C1N[C@H](c2cc(C#Cc3cccnc3)cnc2F)[C@@H](c2ccc(Cl)cc2)O1 [Example 146]")
"< 100 nM"
>>> reportedresult("O=C1N[C@H](c2cncc(C#Cc3cnccn3)c2)[C@@H](c2c(F)cc(F)cc2F)O1 [Example 295]")
"> 1000 nM"
>>> reportedresult("O=C1N[C@H](c2cncc(C#Cc3ccccn3)c2)[C@@H](c2cccc(F)c2)O1 [Example 34]")
"> 1000 nM"
>>> reportedresult("O=C1N[C@@H](c2cncc(C#Cc3ccccc3)c2)[C@H](c2cc(Cl)ccc2Cl)O1 (single isomer, unassigned) [Example 325]")
"> 1500 nM"
>>> reportedresult("C[C@@]1(c2cc(F)ccc2F)OC(=O)N[C@@H]1c1cncc(C#Cc2ccccc2)c1 [Example 290]")
"> 1000 nM"
>>> reportedresult("Cc1ccc([C@@H]2OC(=O)N[C@H]2c2cccc(C#Cc3ccccc3)c2)cc1C (racemic) [Example 100]")
"100 to 1000 nM"
>>> reportedresult("COc1cccc([C@H]2OC(=O)N[C@@H]2c2cccc(C#Cc3ccnc(OC)c3)c2)c1 [Example 89]")
"> 1000 nM"

====

target: human mGluR5A (Homo sapiens); assay: mGluR5 FLIPR Assay; details: positive modulator activity; HEK293 (ZF) cells with human mGluR5A and rat GLAST; Ca++ response to ~EC10 glutamate
assayEndpoint: EC50

>>> reportedresult("O=C1N[C@H](c2cccc(C#Cc3ccccc3)n2)[C@@H](c2cccnc2)O1 (single isomer, unassigned) [Example 367]")
"> 1000 nM"
>>> reportedresult("O=C1N[C@H](c2ccnc(C#Cc3ccccc3)c2)[C@@H](c2cccnc2)O1 [Example 254]")
"> 1000 nM"
>>> reportedresult("COc1cccc([C@@H]2OC(=O)N[C@H]2c2cccc(C#Cc3ccccc3)c2)c1 [Example 2]")
"> 30000 nM"
>>> reportedresult("O=C1N[C@@H](c2cncc(C#Cc3ccccc3)c2)[C@H](c2ccccc2)O1 (single isomer, unassigned) [Example 39]")
"< 100 nM"
>>> reportedresult("O=C1N[C@@H](c2cccc(C#Cc3ccccc3)n2)[C@H](c2ccccc2F)O1 (single isomer, unassigned) [Example 308]")
"> 1000 nM"
>>> reportedresult("O=C1N[C@H](c2cncc(C#Cc3ccccc3)c2)[C@@H](c2cccc(Cl)c2)O1 (single isomer, unassigned) [Example 362]")
"< 100 nM"
>>> reportedresult("O=C1N[C@H](c2cncc(C#Cc3cnccn3)c2)[C@@H](c2ccc(F)c(F)c2F)O1 [Example 296]")
"< 100 nM"

====

Documented pEC50 across a set of compounds
biological target: human mGluR5A (Homo sapiens, UniProt P41594); experiment: mGluR5 FLIPR Assay; settings: positive modulator activity; HEK293 (ZF) cells with human mGluR5A and rat GLAST; Ca++ response to ~EC10 glutamate
Sequence (P41594 21-1180 isoform P41594-2): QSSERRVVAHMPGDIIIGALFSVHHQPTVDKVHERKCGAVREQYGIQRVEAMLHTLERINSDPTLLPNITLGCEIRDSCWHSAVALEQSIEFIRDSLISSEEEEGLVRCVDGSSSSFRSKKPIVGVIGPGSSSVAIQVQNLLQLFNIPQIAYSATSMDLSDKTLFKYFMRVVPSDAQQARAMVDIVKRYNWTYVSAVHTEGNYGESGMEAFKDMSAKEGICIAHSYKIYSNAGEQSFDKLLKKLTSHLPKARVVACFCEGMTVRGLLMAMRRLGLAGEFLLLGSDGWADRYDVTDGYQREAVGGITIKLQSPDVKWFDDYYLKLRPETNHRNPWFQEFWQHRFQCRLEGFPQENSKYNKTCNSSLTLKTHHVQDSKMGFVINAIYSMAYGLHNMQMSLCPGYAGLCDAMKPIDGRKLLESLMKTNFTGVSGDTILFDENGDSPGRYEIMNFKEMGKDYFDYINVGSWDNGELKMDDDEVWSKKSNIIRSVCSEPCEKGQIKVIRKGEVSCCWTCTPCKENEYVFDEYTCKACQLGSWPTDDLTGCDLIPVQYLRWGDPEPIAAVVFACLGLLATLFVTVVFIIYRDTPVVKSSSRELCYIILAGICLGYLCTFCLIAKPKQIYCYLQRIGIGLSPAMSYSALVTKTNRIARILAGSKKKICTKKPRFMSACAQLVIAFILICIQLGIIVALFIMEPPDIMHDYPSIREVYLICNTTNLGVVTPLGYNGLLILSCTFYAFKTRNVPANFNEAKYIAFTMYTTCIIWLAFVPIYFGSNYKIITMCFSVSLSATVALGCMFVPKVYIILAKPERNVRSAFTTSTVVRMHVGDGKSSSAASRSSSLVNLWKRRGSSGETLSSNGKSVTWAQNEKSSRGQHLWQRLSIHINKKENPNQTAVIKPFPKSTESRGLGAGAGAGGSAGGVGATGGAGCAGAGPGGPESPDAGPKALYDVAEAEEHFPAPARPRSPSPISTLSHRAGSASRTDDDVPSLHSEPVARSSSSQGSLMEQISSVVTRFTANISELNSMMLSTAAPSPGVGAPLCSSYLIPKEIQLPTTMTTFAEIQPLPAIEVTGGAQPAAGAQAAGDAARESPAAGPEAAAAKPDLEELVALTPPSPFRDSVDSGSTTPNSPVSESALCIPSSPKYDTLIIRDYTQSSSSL
pEC50: −log10 of the molar value.
assayEndpoint: pEC50

>>> reportedresult("COc1cccc([C@H]2OC(=O)N[C@@H]2c2cccc(C#Cc3ccccc3C(F)(F)F)c2)c1")
"< 4.52"
>>> reportedresult("O=C1N[C@H](c2cncc(C#Cc3cccc(C(F)(F)F)c3)c2)[C@@H](c2cc(F)ccc2F)O1")
"< 6.00"
>>> reportedresult("COc1cccc([C@H]2OC(=O)N[C@@H]2c2cccc(C#Cc3ccc4ccccc4n3)c2)c1")
"6.00 to 7.00"
>>> reportedresult("CCOc1ncc(C#Cc2cccc([C@H]3NC(=O)O[C@@H]3c3cccc(OC)c3)c2)cn1")
"< 6.00"
>>> reportedresult("O=C1N[C@H](c2cc(C#Cc3ccccc3)cnc2F)[C@@H](c2cc(F)ccc2F)O1")
"> 7.00"
>>> reportedresult("C[C@]1(c2cc(F)ccc2F)OC(=O)N[C@@H]1c1cncc(C#Cc2ccccc2)c1")
"> 7.00"
>>> reportedresult("O=C1N[C@@H](c2cccc(C#Cc3ccccc3)c2)[C@H](c2cnccn2)O1")
"< 6.00"
>>> reportedresult("COc1cccc([C@H]2OC(=O)N[C@@H]2c2cccc(C#Cc3cccc(F)c3)c2)c1")
"> 7.00"

====

target: human mGluR5A (Homo sapiens); assay: mGluR5 FLIPR Assay; conditions: positive modulator activity; HEK293 (ZF) cells with human mGluR5A and rat GLAST; Ca++ response to ~EC10 glutamate
pEC50: −log10 of the molar value.
assayEndpoint: pEC50

>>> reportedresult("O=C1N[C@H](c2cc(C#Cc3ccccc3)cnc2F)[C@@H](c2cccc(F)c2)O1")
"> 7.00"
>>> reportedresult("O=C1N[C@H](c2cccc(C#Cc3ccc(F)cc3)n2)[C@@H](c2ccccc2)O1 (single isomer, unassigned)")
"> 7.00"
>>> reportedresult("O=C1N[C@H](c2cncc(C#Cc3ccccc3Cl)c2)[C@@H](c2cccc(F)c2F)O1")
"6.00 to 7.00"
>>> reportedresult("O=C1N[C@@H](c2cncc(C#Cc3ccccc3)c2)[C@H](c2ccc(Cl)cc2)O1 (single isomer, unassigned)")
"6.00 to 7.00"
>>> reportedresult("O=C1N[C@H](c2cccc(C#Cc3ccccc3)c2)[C@@H](c2cnccn2)O1")
"< 6.00"
>>> reportedresult("O=C1N[C@H](c2cncc(C#Cc3ccccc3)c2)[C@@H](c2ccccc2Cl)O1 (single isomer, unassigned)")
"< 6.00"
>>> reportedresult("O=C1N[C@@H](c2cccc(C#Cc3cccnc3)c2)[C@@H](c2cnccn2)O1")
"< 6.00"
>>> reportedresult("COc1cccc([C@H]2OC(=O)N[C@@H]2c2cccc(C#Cc3ccc(OC(F)(F)F)cc3)c2)c1")
"< 6.00"
>>> reportedresult("O=C1N[C@@H](c2cccc(C#Cc3ccccc3)n2)[C@H](c2cccc(F)c2)O1")
"< 6.00"
>>> reportedresult("COc1cccc([C@H]2OC(=O)N[C@@H]2c2cccc(C#Cc3csc(C)n3)c2)c1")
"< 4.52"
>>> reportedresult("O=C1N[C@@H](c2cncc(C#Cc3ccccc3)c2)[C@H](c2ccc(F)cc2)O1 (single isomer, unassigned)")
"< 6.00"
>>> reportedresult("O=C1N[C@H](c2cccc(C#Cc3ccccc3)c2)[C@@H](c2nc(-c3ccncc3)no2)O1")
"< 6.00"
>>> reportedresult("COc1cccc([C@H]2OC(=O)N[C@@H]2c2cccc(C#Cc3ccc(C#N)cc3)c2)c1")
"6.00 to 7.00"
>>> reportedresult("O=C1N[C@@H](c2cccc(C#Cc3cccnc3)n2)[C@H](c2ccccc2)O1 (single isomer, unassigned)")
"< 6.00"
>>> reportedresult("COc1cccc([C@@H]2OC(=O)N[C@H]2c2cncc(C#Cc3csc(C)n3)c2)c1 (single isomer, unassigned)")
"< 6.00"

====

target: human mGluR5A (Homo sapiens, UniProt P41594); assay: mGluR5 FLIPR Assay; settings: positive modulator activity; HEK293 (ZF) cells with human mGluR5A and rat GLAST; Ca++ response to ~EC10 glutamate
pEC50: −log10 of the molar value.
Documented pEC50 across a set of compounds
assayEndpoint: pEC50

>>> reportedresult("N#Cc1cccc(C#Cc2cc([C@H]3NC(=O)O[C@@H]3c3cccnc3)ccn2)c1 [Example 255]")
"< 6.00"
>>> reportedresult("O=C1N[C@H](c2cncc(C#Cc3cncc(F)c3)c2)[C@@H](c2ccc(F)c(F)c2)O1 [Example 175]")
"> 7.00"
>>> reportedresult("Cc1ccc(C#Cc2cncc([C@H]3NC(=O)O[C@@H]3c3cc(F)ccc3F)c2)cc1 [Example 381]")
"6.00 to 7.00"
>>> reportedresult("COc1cccc([C@H]2OC(=O)N[C@@H]2c2cccc(C#Cc3ccccc3)n2)c1 (single isomer, unassigned) [Example 5]")
"> 7.00"

====

Documented pEC50 across a set of molecules
target: human mGluR5A (Homo sapiens); assay: mGluR5 FLIPR Assay; conditions: positive modulator activity; HEK293 (ZF) cells with human mGluR5A and rat GLAST; Ca++ response to ~EC10 glutamate
pEC50: −log10 of the molar value.
assayEndpoint: pEC50

>>> reportedresult("COc1cccc([C@H]2OC(=O)N[C@@H]2c2cccc(C#Cc3cccc(F)c3)n2)c1")
"< 6.00"
>>> reportedresult("O=C1N[C@H](c2cccc(C#Cc3ccccc3)c2)[C@@H](c2nnn[nH]2)O1")
"< 6.00"
>>> reportedresult("O=C1N[C@H](c2cncc(C#Cc3ccccc3)c2)[C@@H](c2cc(F)cc(F)c2F)O1")
"< 6.00"
>>> reportedresult("C[C@]1(c2cccc(C#Cc3ccccc3)n2)NC(=O)O[C@@H]1c1ccccc1F (single isomer, unassigned)")
"> 7.00"
>>> reportedresult("O=C1N[C@H](c2ccnc(C#Cc3ccccn3)c2)[C@@H](c2ccccc2)O1")
"< 6.00"
>>> reportedresult("Cc1noc([C@@H]2OC(=O)N[C@H]2c2cccc(C#Cc3ccccc3)c2)n1")
"< 6.00"
>>> reportedresult("O=C1N[C@H](c2cncc(C#Cc3cncc(F)c3)c2)[C@@H](c2ccc(F)cc2F)O1")
"> 7.00"
>>> reportedresult("COc1cccc([C@H]2OC(=O)N[C@@H]2c2cncc(C#Cc3ccccc3)c2)c1 (single isomer, unassigned)")
"> 7.00"
>>> reportedresult("COc1cccc([C@H]2OC(=O)N[C@@H]2c2cccc(C#Cc3cccc(N(C)C)c3)c2)c1")
"< 4.52"
>>> reportedresult("O=C1N[C@@H](c2cccc(C#Cc3cccnc3)c2)[C@H](c2ccncc2)O1")
"< 6.00"
>>> reportedresult("CC(C)(C)c1ccc(C#Cc2cncc([C@H]3NC(=O)O[C@@H]3c3cc(F)ccc3F)c2)cc1")
"< 6.00"
>>> reportedresult("O=C1N[C@@H](c2cccc(C#Cc3ccccn3)n2)[C@H](c2ccccc2)O1 (single isomer, unassigned)")
"< 6.00"
>>> reportedresult("COc1cccc([C@@H]2OC(=O)N[C@H]2c2cncc(C#Cc3ccccc3)c2)c1 (single isomer, unassigned)")
"< 6.00"
>>> reportedresult("COc1cccc([C@H]2OC(=O)N[C@@H]2c2cccc(C#Cc3ccc(C)nc3)c2)c1")
"6.00 to 7.00"
>>> reportedresult("O=C1N[C@H](c2cncc(C#Cc3cncc(F)c3)c2)[C@@H](c2cccc(F)c2)O1")
"> 7.00"
